The following molecules are listed with their measured half-life at 2 µM values.
Protocol Details: Stability in mouse plasma
Assay type: in vitro ADME
Study Conditions: male, CD-1, mouse, plasma, 37 °C, incubation to 120 min, extrapolated half-life, n = 2; read-out: T½ in mouse plasma

{"Molecule": "C=C(C)[C@@H]1[C@H]2OC(=O)[C@@H]1[C@]1(O)C[C@H]3O[C@]34C(=O)O[C@H]2[C@]14C", "half-life at 2 µM (h)": 1.62}
{"Molecule": "C=C(C)C1C2OC(=O)C1(C)C1(O)CC3OC34C(=O)OC2C41C (centres unmarked)", "half-life at 2 µM (h)": 3.45}

---

The following molecules are listed with their measured remaining at 2 h, 2 µM values.
Protocol Details: Stability in mouse plasma
Assay type: in vitro ADME
Study Conditions: male, CD-1, mouse, plasma; 120 min
Measured Endpoint: remaining at 2 h, 2 µM (%)

{"Molecule": "C=C(C)[C@@H]1[C@H]2OC(=O)[C@@H]1[C@]1(O)C[C@H]3O[C@]34C(=O)O[C@H]2[C@]14C", "Assay Result": 44.7}
{"Molecule": "C=C(C)C1C2OC(=O)C1(C)C1(O)CC3OC34C(=O)OC2C41C (centres unmarked)", "Assay Result": 68}

---

System: Drosophila RDL (Drosophila melanogaster)
Construct: expressed in transfected cells; host or cells: Xenopus oocytes (Ecocyte, Austin, TX) microinjected with capped cRNA
Sequence (P25123 45-606): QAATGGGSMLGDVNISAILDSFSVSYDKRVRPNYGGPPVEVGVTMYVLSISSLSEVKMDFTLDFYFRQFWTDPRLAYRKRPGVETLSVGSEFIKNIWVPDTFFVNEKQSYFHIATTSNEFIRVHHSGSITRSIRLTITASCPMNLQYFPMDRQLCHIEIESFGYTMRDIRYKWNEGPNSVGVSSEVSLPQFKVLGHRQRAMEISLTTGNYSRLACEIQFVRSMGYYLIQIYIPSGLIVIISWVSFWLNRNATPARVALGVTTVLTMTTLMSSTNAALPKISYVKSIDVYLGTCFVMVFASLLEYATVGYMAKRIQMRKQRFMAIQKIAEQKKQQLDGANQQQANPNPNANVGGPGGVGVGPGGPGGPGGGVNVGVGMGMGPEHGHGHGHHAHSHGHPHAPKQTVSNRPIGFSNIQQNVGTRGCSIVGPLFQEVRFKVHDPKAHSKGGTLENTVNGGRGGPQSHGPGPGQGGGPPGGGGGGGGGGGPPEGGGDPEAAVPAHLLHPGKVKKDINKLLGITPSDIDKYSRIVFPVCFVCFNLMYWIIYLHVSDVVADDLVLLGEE
Protocol Details: RDL receptors assay: two-electrode voltage clamp electrophysiology in Xenopus oocytes
Format: cell-based
Study Conditions: block of 10 μM GABA response, pre-incubation, -60 mV; Supplementary Table 9 (5MePXN series); n = 4; read-out: IC50
pIC50: −log10 of the molar value.
The following molecules are listed with their measured pIC50 values.
Measured Endpoint: pIC50

{"Molecule": "CC(C)(F)C1C2OC(=O)C1(C)C1(F)CC3OC34C(=O)OC2C41C (stereo not shown)", "Measured Endpoint": "pIC50", "Result Operator": "=", "Assay Result": 6.00}
{"Molecule": "CC(C)(C)C1C2OC(=O)C1(C)C1(O)CC3OC34C(=O)OC2C41C (stereo not shown)", "Measured Endpoint": "pIC50", "Result Operator": "=", "Assay Result": 5.54}
{"Molecule": "C=C(C)C1C2OC(=O)C1(C)C1(O)CC=C3C(=O)OC2C31C (stereo not shown)", "Measured Endpoint": "pIC50", "Result Operator": "=", "Assay Result": 5.36}
{"Molecule": "CC(C)(O)C1C2OC(=O)C1(C)C1(O)CC3OC34C(=O)OC2C41C (stereo not shown)", "Measured Endpoint": "pIC50", "Result Operator": "<", "Assay Result": 5.00}
{"Molecule": "CC(C)(F)C1C2OC(=O)C1(C)C1(O)CC3OC34C(=O)OC2C41C (stereo not shown)", "Measured Endpoint": "pIC50", "Result Operator": "<", "Assay Result": 5.00}
{"Molecule": "C=C(C)C1C2OC(=O)C1(C)C1(F)CC3OC34C(=O)OC2C41C (stereo not shown)", "Measured Endpoint": "pIC50", "Result Operator": "=", "Assay Result": 6.23}
{"Molecule": "CC(C)C1C2OC(=O)C1(C)C1(F)CC3OC34C(=O)OC2C41C (stereo not shown)", "Measured Endpoint": "pIC50", "Result Operator": "=", "Assay Result": 5.56}
{"Molecule": "CC(C)(O)C1C2OC(=O)C1(C)C1(F)CC3OC34C(=O)OC2C41C (stereo not shown)", "Measured Endpoint": "pIC50", "Result Operator": "=", "Assay Result": 5.81}
{"Molecule": "CC(C)C1C2OC(=O)C1(C)C1(O)CC3OC34C(=O)OC2C41C (stereo not shown)", "Measured Endpoint": "pIC50", "Result Operator": "<", "Assay Result": 5.00}
{"Molecule": "CC1(C2C3OC(=O)C2(C)C2(O)CC4OC45C(=O)OC3C52C)CC1 (stereo not shown)", "Measured Endpoint": "pIC50", "Result Operator": "=", "Assay Result": 5.79}
